Test system: male mice
Format: in vivo
EXPERIMENTAL_CONDITIONS: po
Text: 2. Prolongation of the cerebral survival time in the case of hypoxaemia caused by sub-atmospheric pressure. This neuropathological behaviour is induced in male mice by a progressive reduction of the pressure to 26.66 kPa in an observation chamber and is used as an indicator of the cerebral hypoxia period. It ends in the death of the experimental animal.

[
  {
    "COMPOUND": "O=C(CN1CCCC1=O)Nc1ccccc1 [PA, 2-oxo-1-pyrrolidinylacetic acid anilide, reference compound]",
    "Sub-atmospheric pressure hypoxaemia": "-"
  },
  {
    "COMPOUND": "Cc1cccc(C)c1NC(=O)CN1CCCC1=O",
    "Sub-atmospheric pressure hypoxaemia": "+"
  },
  {
    "COMPOUND": "C(=C\\c1ccccc1)/CN1CCN(C(c2ccccc2)c2ccccc2)CC1",
    "Sub-atmospheric pressure hypoxaemia": "-"
  },
  {
    "COMPOUND": "Cc1ncc(CSSCc2cnc(C)c(O)c2CO)c(CO)c1O",
    "Sub-atmospheric pressure hypoxaemia": "-"
  }
]
